Measured koff, listed per entry.
- System tested: T1, human LAP-TGFB1 Fc fusion (human)
- T1 construct: also called human LAP-TGFβ1-Fc; human LAP-TGFβ-Fc isoform 1
- T1 sequence (chain, as listed by the source limits assumed): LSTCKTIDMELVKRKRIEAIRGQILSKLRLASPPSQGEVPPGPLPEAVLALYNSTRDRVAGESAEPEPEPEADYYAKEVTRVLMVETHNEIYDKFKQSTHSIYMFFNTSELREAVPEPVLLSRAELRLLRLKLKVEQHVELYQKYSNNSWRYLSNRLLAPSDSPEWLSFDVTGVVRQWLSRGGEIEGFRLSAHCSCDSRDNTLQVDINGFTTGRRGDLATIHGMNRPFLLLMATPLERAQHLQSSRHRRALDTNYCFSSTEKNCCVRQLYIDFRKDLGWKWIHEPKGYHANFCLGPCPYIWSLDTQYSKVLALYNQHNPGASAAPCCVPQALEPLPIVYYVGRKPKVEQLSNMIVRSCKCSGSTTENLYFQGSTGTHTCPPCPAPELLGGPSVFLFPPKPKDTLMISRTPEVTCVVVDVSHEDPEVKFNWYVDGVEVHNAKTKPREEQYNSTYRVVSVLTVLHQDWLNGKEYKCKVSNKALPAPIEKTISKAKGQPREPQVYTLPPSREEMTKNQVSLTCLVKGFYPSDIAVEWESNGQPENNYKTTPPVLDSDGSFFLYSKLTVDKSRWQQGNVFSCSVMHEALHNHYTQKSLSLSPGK
- Method description: SPR, antigen-Fc captured, Fab analyte
Numeric only. Scale: s⁻¹

Completed entries (count: 2):
Binder	koff [s⁻¹]
64BJN (Fab, V domains shown, also called VH S31T I58S / VL T30Y R53H (64BJN)) VH: EVQLVQSGAEVKKPGASVKVSCKASGYTFTTYWMHWVRQAPGQGLEWMGRIDPQSGGSKYAQKFQGRATLTVDTSTSTAYMELSRLRSDDTAVYYCARWDYGGYFDVWGQGTLVTVSS VL: DIQMTQSPSSLSASVGDRVTITCRASQDIYNYLNWYQQKPGKAVKLLIYYTSHLHSGVPSRFSGSGSGTDYTLTISSLQPEDFATYFCQQGDTLPWTFGQGTKLEIKR	0.0077
73BJN (Fab, V domains shown, also called VH W33D / VL T30Y (73BJN)) VH: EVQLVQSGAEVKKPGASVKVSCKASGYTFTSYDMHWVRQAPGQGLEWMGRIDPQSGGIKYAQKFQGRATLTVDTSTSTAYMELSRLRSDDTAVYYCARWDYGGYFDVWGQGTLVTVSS VL: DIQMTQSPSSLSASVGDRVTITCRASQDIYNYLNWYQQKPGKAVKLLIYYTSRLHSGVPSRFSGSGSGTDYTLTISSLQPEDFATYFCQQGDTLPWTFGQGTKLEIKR	0.0031

Ask | What value of measured koff is listed for 63BJN (Fab, V domains shown, also called VH S31F W33D M34I / VL T30Y (63BJN)) VH: EVQLVQSGAEVKKPGASVKVSCKASGYTFTFYDIHWVRQAPGQGLEWMGRIDPQSGGIKYAQKFQGRATLTVDTSTSTAYMELSRLRSDDTAVYYCARWDYGGYFDVWGQGTLVTVSS VL: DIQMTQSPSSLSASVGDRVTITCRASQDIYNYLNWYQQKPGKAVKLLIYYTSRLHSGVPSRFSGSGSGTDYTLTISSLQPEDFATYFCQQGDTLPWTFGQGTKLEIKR ?
Reply | 0.0053

Ask | Similarly, 59BJN (Fab, V domains shown, also called VH W33Q M34V / VL T30Y (59BJN)) VH: EVQLVQSGAEVKKPGASVKVSCKASGYTFTSYQVHWVRQAPGQGLEWMGRIDPQSGGIKYAQKFQGRATLTVDTSTSTAYMELSRLRSDDTAVYYCARWDYGGYFDVWGQGTLVTVSS VL: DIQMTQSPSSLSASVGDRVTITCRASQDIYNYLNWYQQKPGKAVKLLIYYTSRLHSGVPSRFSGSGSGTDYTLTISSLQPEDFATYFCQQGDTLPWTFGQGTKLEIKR ?
Reply | 0.0263

# credit: patent US20230272056A1
